Experiment: Pharmacokinetic parameters in rats
Assay type: in vivo
Settings: male, rat, plasma; SD rats, iv (4 mg/kg); read-out: CLz (converted)
OBSERVATION_TYPE: clearance (mL/min/kg)
Answers are plain numbers, in mL/min/kg.

Qu. Using the record for CC(C)c1ccc(C(=O)Nc2cc(CN3CCN(C)CC3)cc(C(F)(F)F)c2)cc1C#Cc1cnc2cnccn12 [Compound 5n] , report its clearance.
Ans. 85

----------
Assay: Pharmacokinetic parameters in rats
Format: in vivo
Settings: male, rat, plasma; SD rats, oral (20 mg/kg)
OBSERVATION_TYPE: half-life (h)
Numbers only, in h.

Qu. Given "CC(C)c1ccc(C(=O)Nc2cc(CN3CCN(C)CC3)cc(C(F)(F)F)c2)cc1C#Cc1cnc2cnccn12" , state its recorded half-life.
Ans. 2.08
